Where do these numbers come from? They come from PubChem BioAssay AID1745844.

- Test system: rodent lifetime carcinogenesis bioassay, tumor incidence TD50
- experiment: carcinogenic potency in animals, long-term in vivo studies, CPDB compilation (AID 1745844)
- experimentalConditions: mouse; strain Charles River CD1; males; in feed; site: liver; lesion: hepatocellular adenoma; dosed 100 weeks; study length 100 weeks
endpointLabel: TD50

> print(dat)
                    querysmiles  endpointlabel          result
1  COc1nn(CSP(=S)(OC)OC)c(=O)s1           TD50  17.2 mg/kg/day

* * *

- System: rodent lifetime carcinogenesis bioassay, tumor incidence TD50
- experiment: carcinogenic potency in animals, long-term in vivo studies, CPDB compilation (AID 1745844)
- experimentalConditions: rat; strain Charles River CD (Sprague-Dawley); males; in feed; site: stomach; lesion: several types; types named in the paper; dosed 47 weeks; study length 51 weeks
endpointLabel: TD50

> print(dat)
                        querysmiles           result
1  COc1ccc(OC)c(/C=C/c2ccc(N)cc2)c1  0.721 mg/kg/day
